The origin of these recorded values is paper PMC9735679.

Molecular target: TetR mutant (Escherichia coli, UniProt P04483, H139W)
Construct: made in house; host or cells: E. coli Rosetta-gami(BL21), vector pET28a
Experiment: Surface plasmon resonance affinity, TetR mutant
Type: binding
Conditions: TetR mutant without Mg2+, SPR
OBSERVABLE: Dissociation rate constant (koff)

MOLECULE	ASSAYED_SYSTEM	Dissociation rate constant (koff)
CN(C)c1cc(NC(=O)CNC(C)(C)C)c(O)c2c1C[C@H]1C[C@H]3[C@H](N(C)C)C(O)=C(C(N)=O)C(=O)[C@@]3(O)C(O)=C1C2=O [TIC, tigecycline]	TetR mutant (Escherichia coli, UniProt P04483, H139W)	9.45e-07 s⁻¹
CN(C)[C@@H]1C(O)=C(C(N)=O)C(=O)[C@@]2(O)C(O)=C3C(=O)c4c(O)ccc(Cl)c4[C@@](C)(O)[C@H]3C[C@@H]12 [CTC, chlortetracycline]	TetR mutant (Escherichia coli, UniProt P04483, H139W)	0.000822 s⁻¹
CN(C)[C@@H]1C(O)=C(C(N)=O)C(=O)[C@@]2(O)C(O)=C3C(=O)c4c(O)cccc4[C@@](C)(O)[C@H]3C[C@@H]12 [TC, tetracycline]	TetR mutant (Escherichia coli, UniProt P04483, H139W)	0.000156 s⁻¹
CN(C)[C@@H]1C(O)=C(C(N)=O)C(=O)[C@@]2(O)C(O)=C3C(=O)c4c(O)cccc4C[C@H]3C[C@@H]12 [SC, Sancycline]	TetR mutant (Escherichia coli, UniProt P04483, H139W)	6.35e-06 s⁻¹
C=C1c2cccc(O)c2C(=O)C2=C(O)[C@]3(O)C(=O)C(C(N)=O)=C(O)[C@@H](N(C)C)[C@@H]3[C@@H](O)[C@H]12 [MTC, Methacycline]	TetR mutant (Escherichia coli, UniProt P04483, H139W)	5.71e-06 s⁻¹

input: Please report the recorded Dissociation rate constant (koff) for CN(C)[C@@H]1C(O)=C(C(N)=O)C(=O)[C@@]2(O)C(O)=C3C(=O)c4c(O)cccc4[C@@](C)(O)[C@H]3[C@H](O)[C@@H]12 [OTC, oxytetracycline] .
output: 7.96e-05 s⁻¹

input: Item CN(C)c1ccc(O)c2c1C[C@H]1C[C@H]3[C@H](N(C)C)C(O)=C(C(N)=O)C(=O)[C@@]3(O)C(O)=C1C2=O [MC, minocycline] has what recorded Dissociation rate constant (koff)?
output: 4.23e-05 s⁻¹

input: # input molecule: CN(C)[C@@H]1C(O)=C(C(=O)NCNCCCC[C@H](N)C(=O)O)C(=O)[C@@]2(O)C(O)=C3C(=O)c4c(O)cccc4[C@@](C)(O)[C@H]3C[C@@H]12 [LMC, Lymecycline] ; wanted: its Dissociation rate constant (koff)
output: 7.25e-05 s⁻¹

input: GET /values?readout=Dissociation rate constant (koff)&item= CN(C)[C@@H]1C(O)=C(C(N)=O)C(=O)[C@@]2(O)C(O)=C3C(=O)c4c(O)ccc(Cl)c4[C@@H](O)[C@H]3C[C@@H]12 [DMC, demeclocycline]
output: 1.72e-05 s⁻¹

input: Report Dissociation rate constant (koff) for C[C@H]1c2cccc(O)c2C(=O)C2=C(O)[C@]3(O)C(=O)C(C(N)=O)=C(O)[C@@H](N(C)C)[C@@H]3[C@@H](O)[C@@H]21 [DC, doxycycline] please.
output: 6.65e-05 s⁻¹

###

Biological target: natural TetR (Escherichia coli)
Construct: made in house
Assay: Surface plasmon resonance affinity, natural TetR
Format: binding
Conditions: KD (equilibrium dissociation constant, Kd/Ka), TetR+Mg2+, SPR
OBSERVABLE: Kd (nM)
Return type: number; implicit unit nM.

Below, each entry is followed by its recorded Kd result.
In [3]: df
Out[3]:
                            chemical_smiles  observable  observed_value
0  CN(C)[C@@H]1C(O)=C(C(N)=O)C(=O)[C@@]2(O)C(O)=C3C(=O)c4c(O)cccc4[C@@](C)(O)[C@H]3[C@H](O)[C@@H]12          Kd             409
1  CN(C)[C@@H]1C(O)=C(C(N)=O)C(=O)[C@@]2(O)C(O)=C3C(=O)c4c(O)ccc(Cl)c4[C@@H](O)[C@H]3C[C@@H]12          Kd            27.6

input: Consider the compound C=C1c2cccc(O)c2C(=O)C2=C(O)[C@]3(O)C(=O)C(C(N)=O)=C(O)[C@@H](N(C)C)[C@@H]3[C@@H](O)[C@H]12 and give its measured Kd.
output: 122

input: Consider the compound CN(C)[C@@H]1C(O)=C(C(N)=O)C(=O)[C@@]2(O)C(O)=C3C(=O)c4c(O)cccc4C[C@H]3C[C@@H]12 and give its measured Kd.
output: 70.2

input: If you can, please state the reported Kd value of CN(C)[C@@H]1C(O)=C(C(N)=O)C(=O)[C@@]2(O)C(O)=C3C(=O)c4c(O)ccc(Cl)c4[C@@](C)(O)[C@H]3C[C@@H]12 .
output: 2560

input: What measured Kd goes with CN(C)[C@@H]1C(O)=C(C(N)=O)C(=O)[C@@]2(O)C(O)=C3C(=O)c4c(O)cccc4[C@@](C)(O)[C@H]3C[C@@H]12 ?
output: 4790

input: Please look up its Kd: CN(C)[C@@H]1C(O)=C(C(=O)NCNCCCC[C@H](N)C(=O)O)C(=O)[C@@]2(O)C(O)=C3C(=O)c4c(O)cccc4[C@@](C)(O)[C@H]3C[C@@H]12
output: 263

###

Molecular target: natural TetR (Escherichia coli)
Construct: made in house
Test: Surface plasmon resonance affinity, natural TetR
Assay type: binding
Conditions: read-out: Ka (association constant), TetR without Mg2+, SPR
Experimental: After the experiments, the association constant (Ka), the dissociation constant (Kd), and the equilibrium dissociation constant (KD = Kd/Ka) for each drug were calculated. For convenience in comparing their affinities, the absolute affinity constant (KA = […]) for each drug was also calculated.
Binary label based on kon with cut-off 3000 M⁻¹ s⁻¹: below gives 1, not below gives -1.

COMPOUND	ASSAYED_SYSTEM	CLASSIFICATION
CN(C)[C@@H]1C(O)=C(C(N)=O)C(=O)[C@@]2(O)C(O)=C3C(=O)c4c(O)cccc4[C@@](C)(O)[C@H]3C[C@@H]12 [TC, tetracycline]	natural TetR (Escherichia coli)	1
CN(C)c1cc(NC(=O)CNC(C)(C)C)c(O)c2c1C[C@H]1C[C@H]3[C@H](N(C)C)C(O)=C(C(N)=O)C(=O)[C@@]3(O)C(O)=C1C2=O [TIC, tigecycline]	natural TetR (Escherichia coli)	1
CN(C)[C@@H]1C(O)=C(C(N)=O)C(=O)[C@@]2(O)C(O)=C3C(=O)c4c(O)cccc4C[C@H]3C[C@@H]12 [SC, Sancycline]	natural TetR (Escherichia coli)	1
CN(C)[C@@H]1C(O)=C(C(N)=O)C(=O)[C@@]2(O)C(O)=C3C(=O)c4c(O)ccc(Cl)c4[C@@H](O)[C@H]3C[C@@H]12 [DMC, demeclocycline]	natural TetR (Escherichia coli)	1
C[C@H]1c2cccc(O)c2C(=O)C2=C(O)[C@]3(O)C(=O)C(C(N)=O)=C(O)[C@@H](N(C)C)[C@@H]3[C@@H](O)[C@@H]21 [DC, doxycycline]	natural TetR (Escherichia coli)	-1
CN(C)c1ccc(O)c2c1C[C@H]1C[C@H]3[C@H](N(C)C)C(O)=C(C(N)=O)C(=O)[C@@]3(O)C(O)=C1C2=O [MC, minocycline]	natural TetR (Escherichia coli)	-1

input: Strictly below 3000 M⁻¹ s⁻¹: is that where kon of CN(C)[C@@H]1C(O)=C(C(N)=O)C(=O)[C@@]2(O)C(O)=C3C(=O)c4c(O)cccc4[C@@](C)(O)[C@H]3[C@H](O)[C@@H]12 [OTC, oxytetracycline] sits?
output: 1

input: Problem: For the compound C=C1c2cccc(O)c2C(=O)C2=C(O)[C@]3(O)C(=O)C(C(N)=O)=C(O)[C@@H](N(C)C)[C@@H]3[C@@H](O)[C@H]12 [MTC, Methacycline] , is kon under 3000 M⁻¹ s⁻¹?
output: 1

input: For CN(C)[C@@H]1C(O)=C(C(=O)NCNCCCC[C@H](N)C(=O)O)C(=O)[C@@]2(O)C(O)=C3C(=O)c4c(O)cccc4[C@@](C)(O)[C@H]3C[C@@H]12 [LMC, Lymecycline] , is the recorded kon below the cut-off of 3000 M⁻¹ s⁻¹?
output: -1

###

Target: natural TetR (Escherichia coli)
Construct: made in house
Test: Surface plasmon resonance affinity, natural TetR
Assay type: binding
Conditions: read-out: Ka (association constant), TetR+Mg2+, SPR
Listed here are compounds together with their documented kon.

COMPOUND	OBSERVABLE	OBSERVED_VALUE
CN(C)[C@@H]1C(O)=C(C(N)=O)C(=O)[C@@]2(O)C(O)=C3C(=O)c4c(O)ccc(Cl)c4[C@@H](O)[C@H]3C[C@@H]12 [DMC, demeclocycline]	kon	4610 M⁻¹ s⁻¹
CN(C)[C@@H]1C(O)=C(C(N)=O)C(=O)[C@@]2(O)C(O)=C3C(=O)c4c(O)cccc4[C@@](C)(O)[C@H]3[C@H](O)[C@@H]12 [OTC, oxytetracycline]	kon	3520 M⁻¹ s⁻¹
CN(C)[C@@H]1C(O)=C(C(N)=O)C(=O)[C@@]2(O)C(O)=C3C(=O)c4c(O)cccc4C[C@H]3C[C@@H]12 [SC, Sancycline]	kon	2310 M⁻¹ s⁻¹
CN(C)c1ccc(O)c2c1C[C@H]1C[C@H]3[C@H](N(C)C)C(O)=C(C(N)=O)C(=O)[C@@]3(O)C(O)=C1C2=O [MC, minocycline]	kon	7270 M⁻¹ s⁻¹
C[C@H]1c2cccc(O)c2C(=O)C2=C(O)[C@]3(O)C(=O)C(C(N)=O)=C(O)[C@@H](N(C)C)[C@@H]3[C@@H](O)[C@@H]21 [DC, doxycycline]	kon	43900 M⁻¹ s⁻¹

input: Form field: reported kon of CN(C)[C@@H]1C(O)=C(C(=O)NCNCCCC[C@H](N)C(=O)O)C(=O)[C@@]2(O)C(O)=C3C(=O)c4c(O)cccc4[C@@](C)(O)[C@H]3C[C@@H]12 [LMC, Lymecycline]
output: 4590 M⁻¹ s⁻¹

input: What measured kon goes with CN(C)c1cc(NC(=O)CNC(C)(C)C)c(O)c2c1C[C@H]1C[C@H]3[C@H](N(C)C)C(O)=C(C(N)=O)C(=O)[C@@]3(O)C(O)=C1C2=O [TIC, tigecycline] ?
output: 633 M⁻¹ s⁻¹
